From: PubChem BioAssay AID256

System: CD2F1 mice, L1210 leukemia ip, survival T/C
measurement_description: NCI In Vivo Anticancer Drug Screen. Data for tumor model L1210 Leukemia (intraperitoneal) in CD2F1 (CDF1) mice
conditions: endpoint: mean survival time; dose: 200.0 mg/kg/injection; schedule: Q01DX009 (ip); vehicle: saline
Procedure: The antitumor activity of compounds was measured in mice bearing transplantable tumors. Survival or tumor size were measured and the results are expressed as the measurement made in the treated group (T) divided by the measurement made in the vehicle treated control group (C). The tumor model used in this assay is L1210 Leukemia (intraperitoneal) in CD2F1 (CDF1) mice
Toxic doses and inconclusive results are not listed. How the source made its calls: active means survival T/C of 150% or more; inactive means T/C below 125% in these data.
Outcome codes: 1 (yes) (active), 0 (no) (inactive)

1. OC1c2ccccc2-c2ccccc21; 0 (no)
2. CN(C)/N=N/c1nc[nH]c1C(N)=O; 1 (yes)
3. O=C(OCc1ccccc1)C1CCCN1C(=O)C(CSC(c1ccccc1)(c1ccccc1)c1ccccc1)NC(c1ccccc1)(c1ccccc1)c1ccccc1 (configuration not stated); 0 (no)
4. CC(C)(C)C(=O)O; 0 (no)
5. CC(=O)N1CCCC2=C1CCCCCC2; 0 (no)
6. CCCCCCCCCCC(N)C(=O)O (configuration not stated); 0 (no)
7. O=C(c1ccccc1)C1CC1c1ccccc1 (configuration not stated); 0 (no)
8. NC(CSC1c2ccccc2-c2ccccc21)C(=O)O (configuration not stated); 0 (no)
9. CC(C)CC(NC(=O)C(CSC(c1ccccc1)(c1ccccc1)c1ccccc1)NC(c1ccccc1)(c1ccccc1)c1ccccc1)C(=O)O (configuration not stated); 0 (no)
10. COC(=O)C(N)Cc1ccc(OC(c2ccccc2)(c2ccccc2)c2ccccc2)cc1 (configuration not stated); 0 (no)
11. NC(=O)SCC(N)C(=O)O (configuration not stated); 0 (no)
12. NC(=O)c1csc(C2OC(CO)C(O)C2O)n1 (configuration not stated); 1 (yes)
